Molecular target: DAT (Rattus norvegicus, UniProt P23977)
Construct: from tissue; host or cells: rat caudate membranes
Sequence (P23977 whole entry): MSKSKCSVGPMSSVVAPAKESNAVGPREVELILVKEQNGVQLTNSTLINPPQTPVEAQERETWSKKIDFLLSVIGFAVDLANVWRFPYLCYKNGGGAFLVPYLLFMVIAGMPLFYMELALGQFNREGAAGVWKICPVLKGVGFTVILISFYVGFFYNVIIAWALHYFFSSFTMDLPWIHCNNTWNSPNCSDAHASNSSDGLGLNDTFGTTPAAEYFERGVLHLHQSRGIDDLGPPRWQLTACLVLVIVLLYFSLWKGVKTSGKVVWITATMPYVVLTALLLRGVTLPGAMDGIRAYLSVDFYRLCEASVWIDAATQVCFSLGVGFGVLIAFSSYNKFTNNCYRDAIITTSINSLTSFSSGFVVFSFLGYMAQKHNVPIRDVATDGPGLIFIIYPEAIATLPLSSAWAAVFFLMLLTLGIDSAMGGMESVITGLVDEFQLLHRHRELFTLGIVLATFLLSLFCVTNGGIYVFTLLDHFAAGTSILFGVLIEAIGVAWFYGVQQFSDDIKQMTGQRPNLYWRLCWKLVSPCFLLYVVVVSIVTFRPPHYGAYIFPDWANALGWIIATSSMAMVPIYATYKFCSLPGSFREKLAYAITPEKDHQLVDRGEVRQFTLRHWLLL
Assay: Dopamine transporter binding, inhibition of [^3H]WIN35428 binding in rat caudate membranes
Settings: 2 h; read-out: DAT Binding εmax
// rule not met strictly below 60% in Emax; rule met otherwise

Previously resolved entries follow.
>>> assigned_category("c1ccc(C(CNc2nc(-c3cnc4nccn4c3)nc3ccccc23)c2ccncc2)cc1 (stereo not shown) [compound 110]")
"rule not met"
>>> assigned_category("CS(=O)(=O)Nc1ccc(-c2nc(NCC(c3ccccc3)c3ccccc3)c3ccccc3n2)cc1 [SRI-29577]")
"rule met"
>>> assigned_category("Cn1cc2cc(-c3nc(NCC(c4ccccc4)c4ccccc4)c4ccccc4n3)ccc2n1 [compound 66]")
"rule not met"
>>> assigned_category("CN(C)c1ccc(-c2nc(NCC(c3ccccc3)c3ccccc3)c3ccccc3n2)cc1 [SRI-29786]")
"rule met"
>>> assigned_category("CS(=O)(=O)Nc1ccc(-c2nc(NCC(O)(c3ccccc3)c3ccccc3)c3ccccc3n2)cc1 [SRI-30504]")
"rule not met"

For this compound, is measured Emax 60% or higher? c1ccc(C(CNc2nc(-c3ccc4nccn4c3)nc3ccccc23)c2cccnc2)cc1 (stereo not shown) [compound 131]
rule not met

For this compound, is measured Emax 60% or higher? Cc1cc2nccn2cc1-c1nc(NCC(c2ccccc2)c2ccccc2)c2ccccc2n1 [compound 118]
rule met

For this compound, is measured Emax 60% or higher? Cc1cc2nccn2cc1-c1nc(NCC(c2ccccc2)c2ccc[nH]2)c2ccccc2n1 (stereo not shown) [compound 140]
rule met

For this compound, is measured Emax 60% or higher? c1ccc(C(CNc2nc(-c3cnc4nccn4c3)nc3ccccc23)c2ccccn2)cc1 (stereo not shown) [compound 98]
rule met

----------
Biological target: dopamine transporter (DAT) (Rattus norvegicus, UniProt P23977)
Sequence (P23977 whole entry): as above
Assay: Dopamine reuptake ([^3H]dopamine uptake) inhibition in rat brain synaptosomes
Details: read-out: DA Uptake Emax (% I ± SD)
Endpoint name: Emax (%)
Give just the numeric value; % need not be written.

Please review the entries below; each comes with its answer.
>>> measured_result("c1ccc(C(CNc2nc(-c3ccc4nccn4c3)nc3ccccc23)n2ccnc2)cc1 (stereo not shown)")
58
>>> measured_result("c1ccc(C(Nc2nc(-c3ccsc3)nc3ccccc23)c2ccccc2)cc1")
100
>>> measured_result("c1ccc(C(CNc2nc(-c3ccc4[nH]ncc4c3)nc3ccccc23)c2ccccc2)cc1")
74

# evaluate next
Any idea what Emax was measured for "c1ccc(C(CNc2nc(-c3ccc4ncsc4c3)nc3ccccc23)c2ccccc2)cc1" ?
67

----------
Target: norepinephrine transporter (NET) (Rattus norvegicus)
Test: Norepinephrine reuptake ([^3H]norepinephrine uptake) inhibition in rat brain synaptosomes
Details: read-out: NE Uptake EC50 (nM ± SD); rat brain synaptosomes; 10 nM [^3H]norepinephrine; 10 min, 37° C.
Here the recorded IC50 is given for each entry.
Give just the numeric value; nM need not be written.

>>> measured_result("c1ccc(C(CNc2nc(-c3ccc4[nH]ccc4c3)nc3ccccc23)c2ccccc2)cc1")
290
>>> measured_result("CSc1ncc(-c2nc(NCC(c3ccccc3)c3ccccc3)c3ccccc3n2)cn1")
204
>>> measured_result("c1ccc(C(CNc2nc(-c3ccc4ncnn4c3)nc3ccccc23)c2ccccc2)cc1")
86

# evaluate next
Any idea what IC50 was measured for c1ccc(C(CNc2nc(-c3cnc4nccn4c3)nc3ccccc23)c2ccncc2)cc1 (stereo not shown) ?
60

----------
Target: DAT (Rattus norvegicus, UniProt P23977)
Construct: from tissue; host or cells: rat caudate membranes
Test: Dopamine transporter binding, inhibition of [^3H]WIN35428 binding in rat caudate membranes
Conditions: 2 h; read-out: DAT Binding εmax
// Not met strictly below 70% in Emax; Met otherwise

Previously resolved entries follow.
>>> assigned_category("CN(C)c1ncc(-c2nc(NCC(O)(c3ccccc3)c3ccccc3)c3ccccc3n2)cn1")
"Not met"
>>> assigned_category("Cc1cc2nccn2cc1-c1nc(NCC(c2ccccc2)c2ccncc2)c2ccccc2n1 (centres unmarked)")
"Met"
>>> assigned_category("CNc1ncc(-c2nc(NCC(c3ccccc3)c3ccccc3)c3ccccc3n2)cn1")
"Not met"
>>> assigned_category("CSc1ncc(-c2nc(NCC(c3ccccc3)c3ccccc3)c3ccccc3n2)cn1")
"Not met"
>>> assigned_category("CN(C)c1ccc(-c2nc(NCC(c3ccccc3)c3ccccc3)c3ccccc3n2)cn1")
"Met"
>>> assigned_category("CN(C)c1ncc(-c2nc(NCC(c3ccccc3)c3ccccc3)c3ccccc3n2)cn1")
"Met"

For this compound, is measured Emax 70% or higher? c1ccc(C(CNc2nc(-c3ccc4nccn4c3)nc3ccccc23)c2ccc[nH]2)cc1 (centres unmarked)
Not met

----------
// Condition not met strictly below 200 °C in melting point; Condition met otherwise

>>> assigned_category("COc1cc2nc(-c3cccnc3)nc(NCC(c3ccccc3)c3ccccc3)c2cc1OC")
"Condition not met"
>>> assigned_category("FC(F)(F)CNc1ncc(-c2nc(NCC(c3ccccc3)c3ccccc3)c3ccccc3n2)cn1")
"Condition met"
>>> assigned_category("c1ccc(C(CCNc2nc(-c3ccc4nccn4c3)nc3ccccc23)c2ccccc2)cc1")
"Condition met"

Continue with the molecule presented below.
For this molecule, is measured melting point 200 °C or higher? "COc1ccc2nc(-c3ccc4[nH]ccc4c3)nc(NCC(c3ccccc3)c3ccccc3)c2c1"
Condition not met

----------
Here the recorded D-Amphetamine Emax (% ± SD) is given for each entry.
Target: dopamine transporter (DAT) (Rattus norvegicus, UniProt P23977)
Assay: Dopamine transporter-mediated [^3H]MPP^+ release, shift of D-amphetamine-induced release, rat caudate synaptosomes
Format: biochemical
Parameters: Freshly removed caudate was homogenized in 10% ice-cold sucrose; from tissue; host or cells: rat caudate synaptosomes
Conditions: Emax of D-amphetamine for [^3H]MPP^+ release in presence of 50 nM test compound
Give just the numeric value; % need not be written.

Please review the entries below; each comes with its answer.
>>> measured_result("Cc1cc2nccn2cc1-c1nc(NCC(c2ccccc2)c2ccncc2)c2ccccc2n1 (stereo not shown)")
103
>>> measured_result("c1ccc(C(CNc2nc(-c3cnc4nccn4c3)nc3ccccc23)c2ccccc2)cc1")
102
>>> measured_result("Cc1cc2nccn2cc1-c1nc(NCC(O)(c2ccccc2)c2ccccc2)c2ccccc2n1")
104

# evaluate next
Any idea what D-Amphetamine Emax (% ± SD) was measured for "c1ccc(C(CNc2nc(-c3ccc4nccn4c3)nc3ccccc23)c2ccccc2)cc1" ?
103

----------
Here the recorded Apparent Kc is given for each entry.
Target: dopamine transporter (DAT) (Rattus norvegicus, UniProt P23977)
Assay: Dopamine transporter-mediated [^3H]MPP^+ release, shift of D-amphetamine-induced release, rat caudate synaptosomes
Assay type: biochemical
Set-up: Freshly removed caudate was homogenized in 10% ice-cold sucrose; from tissue; host or cells: rat caudate synaptosomes
Settings: [3H]MPP+ release; Apparent Kc = [Blocker]/((EC50-2/EC50-1) − 1); negative when shifted EC50 is less than control
# include the unit after the value

>>> measured_result("CN(C)c1ncc(-c2nc(NCC(c3ccccc3)c3ccccc3)c3ccccc3n2)cn1")
"1820 nM"

Any idea what Apparent Kc was measured for "Cc1cc2nccn2cc1-c1nc(NCC(c2ccccc2)c2ccccc2)c2ccccc2n1" ?
267 nM

Any idea what Apparent Kc was measured for "c1ccc(C(CNc2nc(-c3cnc4nccn4c3)nc3ccccc23)c2ccccc2)cc1" ?
-1070 nM

Any idea what Apparent Kc was measured for Cc1cc2nccn2cc1-c1nc(NCC(c2ccccc2)c2ccc[nH]2)c2ccccc2n1 (centres unmarked) ?
55 nM

Any idea what Apparent Kc was measured for "CN(C)c1ccc(-c2nc(NCC(c3ccccc3)c3ccccc3)c3ccccc3n2)cn1" ?
912 nM

----------
Here the recorded melting point is given for each entry.
Give just the numeric value; °C need not be written.

Any idea what melting point was measured for "COc1ccc2nc(-c3cccnc3)nc(NCC(c3ccccc3)c3ccccc3)c2c1" ?
77

----------
Here the recorded IC50 is given for each entry.
Biological target: dopamine transporter (DAT) (Rattus norvegicus, UniProt P23977)
Test: Dopamine reuptake ([^3H]dopamine uptake) inhibition in rat brain synaptosomes
Settings: Two-Site IC50-1 (nM), [^3H]DA uptake dose-response curve fit to two-component equation, component 1
Give just the numeric value; nM need not be written.

Please review the entries below; each comes with its answer.
>>> measured_result("CN(C)c1ccc(-c2nc(NCC(c3ccccc3)N3CCOCC3)c3ccccc3n2)cc1 (stereo not drawn)")
6
>>> measured_result("CN(C)c1ccc(-c2nc(NCCc3ccccc3)c3ccccc3n2)cc1")
99

# evaluate next
Any idea what IC50 was measured for "c1ccc(C(CNc2nc(-c3ccc4c(c3)CCN4)nc3ccccc23)c2ccccc2)cc1" ?
1.8e+06

----------
Molecular target: dopamine transporter (DAT) (Rattus norvegicus, UniProt P23977)
Assay: Dopamine reuptake ([^3H]dopamine uptake) inhibition in rat brain synaptosomes
Details: DAT Uptake IC50, [3H]DA uptake inhibition; mean ± S.D., n = 3
Endpoint name: IC50 (nM)
Give just the numeric value; nM need not be written.

>>> measured_result("CN(C)c1ccc(-c2nc(NCC(c3ccccc3)c3ccccc3)c3ccccc3n2)cc1")
7.1
>>> measured_result("OC(CNc1nc(-c2ccc3[nH]ccc3c2)nc2ccccc12)(c1ccccc1)c1ccccc1")
11
>>> measured_result("c1ccc(C(CNc2nc(-c3cnc4nccn4c3)nc3ccccc23)c2ccncc2)cc1 (stereo not shown)")
5.6

# evaluate next
Form entry - test system: dopamine transporter (DAT) (Rattus norvegicus, UniProt P23977); read-out: IC50; compound: c1ccc(C(CNc2nc(-c3ccc4nccn4c3)nc3ccccc23)c2ccc[nH]2)cc1 (stereo not shown)
6.1
